Tested on: HEK-293T
Test details: Multiplex assay against HEK293T
Format: toxicity, cell-based
Setup conditions: human, 12 h, 1 µM, compound concentration 1 uM, replicate 2
Kindly apply the following: Met if Population Mitotic Cells (%) is less than 80%, Not met in every other case.

Incoming: Just wondering, is Population Mitotic Cells (%) of Cl.Cl.Nc1ncnc2c1c(-c1cccc(OCc3ccccc3)c1)cn2[C@H]1C[C@@H](CN2CCC2)C1 below 80%?
Outgoing: Met

Incoming: Moving on to the next compound: Nc1ccc(C(=O)Nc2cccc(-c3nc(N4CCOCC4)c4oc5ncccc5c4n3)c2)cn1
Outgoing: Met

Incoming: Moving on to the next compound: CC(=O)c1cc(-c2cc(C(=O)NC3CC3)ccc2C)c2ncccn12
Outgoing: Not met

Value source: ChEMBL document CHEMBL4689842
